- System: CD4 cells, isolated from healthy donor PMBCs, infected with HIV VSV-G pseudotyped GFP-GAG reporter virus
- test name: tissue or blood
- Type: cell-based
- condition parameters: Homo sapiens, 72 h
pEC50: −log10 of the molar value.
Classification field: enter T for pEC50 values not below 7, F for values below it.

Q: Answer whether pEC50 of Cc1cc(/C=C/C#N)cc(C)c1Oc1nc(NC23CC(C#N)(C2)C3)nc2onc(C)c12 [Compound 142] is greater than or equal to 7.
A: T

Q: Does the compound Cc1cc(/C=C/C#N)cc(C)c1Oc1nc(NC23CC(C#N)(C2)C3)nc2c1C[N+](C)(C)C2 [Compound 152] have recorded pEC50 that is 7 or more?
A: F

Q: For this compound, is measured pEC50 7 or higher? Cc1cc(/C=C/C#N)cc(C)c1Oc1nc(NC23CC(C#N)(C2)C3)nc2ncn(CC(F)(F)F)c12 [Compound 106]
A: F

Q: Does the compound Cc1nc2nc(NC34CC(C#N)(C3)C4)nc(Oc3c(C)cc(/C=C/C#N)cc3C)c2s1 [Compound 124] have recorded pEC50 that is 7 or more?
A: T

Q: Is it the case that Cc1cc(/C=C/C#N)cc(C)c1Oc1nc(NC23CC(C#N)(C2)C3)nc2c1COC2 [Compound 117] has pEC50 reaching or exceeding 7?
A: T

Q: Exam item: decide whether the reported pEC50 for Cc1cc(/C=C/C#N)cc(C)c1Oc1nc(NC23CC(C#N)(C2)C3(F)F)nc2[nH]nc(C)c12 [Compound 77] is at least 7.
A: T

Q: Quick check: does Cc1nc2nc(NC34CC(C#N)(C3)C4)nc(Oc3c(F)cc(/C=C/C#N)cc3F)c2[nH]1 [Compound 58] have pEC50 greater than or equal to 7?
A: F

Q: Does Cc1cc(/C=C/C#N)cc(C)c1Oc1nc(NC23CC(C#N)(C2)C3)nc2nc(C3CC3)[nH]c12 [Compound 49] have a reported pEC50 of at least 7?
A: F

Q: # bool: pEC50 of COc1ccc(Cn2cnc3c(Oc4c(C)cc(/C=C/C#N)cc4C)nc(NC45CC(C#N)(C4)C5)nc32)cc1 [Compound 42] >= 7
A: F

Q: Hi, just wondering whether Cc1cc(/C=C/C#N)cc(C)c1Nc1nc(NC23CC(C#N)(C2)C3)nc2scnc12 [Compound 23] shows pEC50 of 7 or higher.
A: T

Q: I'd appreciate it if you could say whether Cc1nc2nc(NC34CC(C#N)(C3)C4)nc(Oc3c(Cl)cc(/C=C/C#N)cc3Cl)c2[nH]1 [Compound 59] has pEC50 at least equal to 7.
A: F
